System: CAKI-1 renal
Assay: NCI tumour cell line growth inhibition, 48 h
Entries annotated with measured TGI

Here's what some known entries look like.
| compound | TGI |
| --- | --- |
| C/C(=N\NC(=O)CC(=O)N(C(=O)c1ccc(Cl)cc1)c1ccc(C)cc1)c1ccccc1O | > 100 µM |
| C=C(CCCO)[C@@H]1CC[C@@](C)(O)[C@H]1C | > 100 µM |
| Cc1c(F)c(NC(=O)CN(C)C)c2c(=O)cc(-c3ccc(NC(=O)CN(C)C)c(F)c3)oc2c1F | 23.1 µM |
| COC(=O)C1(C)NCCc2c1[nH]c1ccccc21 (stereo not given) | > 100 µM |
| C/C(=N/Nc1nc(C)cc(=O)[nH]1)C(=O)O | > 100 µM |
| CCCCCCCCOC(=O)c1cc([N+](=O)[O-])c(Sc2ncnc3nc[nH]c23)c([N+](=O)[O-])c1 | 17.7 µM |
| Cc1cc(=O)oc2cc(OC/C=C3\CCC(=O)O3)ccc12 | 26.8 µM |
| CCCCC(=O)Nc1ccc2c(C)cc(-c3ccc(-c4cc(-c5ccc(C)cc5)cc(-c5ccc(-c6cc(C)c7ccc(NC(=O)CCCC)nc7n6)cc5)n4)cc3)nc2n1 | > 100 µM |
| O=c1oc2ccc3ccccc3c2cc1-c1nc2ccc([N+](=O)[O-])cc2o1 | > 91.4 µM |

Data request, read-out TGI, for O=c1c2c(c1=O)-c1ccccc1CN2
> 100 µM

---

Tested on: NCI/ADR-RES ovarian
Assay: NCI tumour cell line growth inhibition, 48 h
measuredQuantity: GI50

| molecule | reported |
| --- | --- |
| CCCN1CCC(c2ccc(Nc3nc(Nc4cc(F)ccc4C(N)=O)c4cc[nH]c4n3)c(OC)c2)CC1 | 3.2 µM |
| CN(C)c1ccc(N=C2C=CC(=O)c3ccccc32)cc1 | 3.95 µM |

Now for the molecule whose GI50 we want.
Data request, read-out GI50, for CCCCCC[C@H](C)NC(=O)c1ccc(Nc2nc3ccccc3c3occc23)cc1
2.48 µM

---

Test system: KM12 colon
Experiment: NCI tumour cell line growth inhibition, 48 h
measuredQuantity: TGI

| compound | reported |
| --- | --- |
| COc1ccc2c(c1)C(=O)c1c-2c(Nc2cccc(C(C)=O)c2)nc2ccccc12 | > 100 µM |
| CCCNC(=O)N(C)C(=O)N1N=C(c2ccccc2)C1c1ccccc1 (stereo not drawn) | > 100 µM |
| O=c1c(Cl)cc2nc3ccccc3sc-2c1Cl | 38.4 µM |

Data request, read-out TGI, for O=c1ccnc2ccc3n[nH][nH]c3c12
> 100 µM

Data request, read-out TGI, for CCCN1CCC(c2ccc(Nc3nc(Nc4cc(F)ccc4C(N)=O)c4cc[nH]c4n3)c(OC)c2)CC1
6.12 µM

Data request, read-out TGI, for O=C1NC(=S)NC(=O)C1=C/C=C/c1ccc([N+](=O)[O-])cc1
> 100 µM

Data request, read-out TGI, for COc1ccc(C(=O)/C=C/c2ccc(OCC(=N)N)cc2)cc1
25.8 µM

Data request, read-out TGI, for COc1ccc(OC)c(/C=C/c2nc(SCc3ccccc3)n(-c3ccc(Cl)cc3)n2)c1
> 100 µM

Data request, read-out TGI, for CCCCCCCCOC(=O)c1cc([N+](=O)[O-])c(Sc2ncnc3nc[nH]c23)c([N+](=O)[O-])c1
18 µM

Data request, read-out TGI, for Clc1c2ccccc2nc2c1[nH]c1ccccc12
22.2 µM
